Target: T1, human TL1A (Fitzgerald #30R-AT070) (human, UniProt O95150 72-251, limits assumed)
T1 construct: Coated on the ELISA plate at 1 ug/mL; also called TNFSF15
T1 sequence (looked up): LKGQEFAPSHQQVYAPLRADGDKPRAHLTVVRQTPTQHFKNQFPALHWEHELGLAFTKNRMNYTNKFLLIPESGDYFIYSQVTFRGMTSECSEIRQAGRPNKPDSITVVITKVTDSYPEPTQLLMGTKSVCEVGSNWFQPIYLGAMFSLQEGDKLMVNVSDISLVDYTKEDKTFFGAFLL
Test: ELISA titration, coated human TL1A, culture supernatant
Attribute: pKd
Reminder that pKd means the negative base-10 logarithm of the concentration expressed in mol/L.

- A72 (antibody, human IgG1, V domains shown, human IgG1/kappa (pFuse vectors), culture supernatant) VH: QVQLVQSGAEVKKPGASVKVSCKASGFDIQDTYMHWVRQAPGQGLEWMGRIEPASGHIKYDPKFQGRATITTDTSTSTVYMELSSLRSEDTAVYYCARSGGLPDWWGQGTTVTVSS VL: EIVLTQSPGTLSLSPGERATLSCRASSSVSYMYWYQQKPGQAPRLLIYATSNLASGIPDRFSGSGSGTDFTLTISRLEPEDFAVYYCQQWEGNPRTFGGGTKLEIK: 9.80

Report pKd for A141 (antibody, human IgG1, V domains shown, human IgG1/kappa (pFuse vectors), culture supernatant) VH: QVQLVQSGAEVKKPGASVKVSCKASGFDIQDTYMHWVRQRPGQGLEWMGRIDPASGHTKYDPKFQVRVTITRDTSTSTAYLELSSLRSEDTAVYYCARSGGLPDVWGQGTTVTVSS VL: EIVLTQSPGTLSLSPGERATLSCRASSSVSYMYWYQQKPGQAPRLLIYATSNLASGIPDRFSGSGSGTDFTLTISRLEPEDFAVYYCQQWSRNPRTFGGGTKLEIK please.
9.97
